assay: qHTS for Inhibitors of the Functional Ribonucleoprotein Complex (vRNP) of Lassa (LASV) Arenavirus: LASV Primary Screen - GLuc reporter signal (AID 1347082); conditions: LASV minigenome vRNP, Gaussia luciferase reporter; series mostly up to 57.5 µM; also: nearly all actives have a fitted effect of over 60% in size
Results filed as inconclusive are left out. Active and inactive are the calls of the source. Calls follow the shape of the full dose curve; tested in HEK293 reporter line.
// classify into true (1) = active, false (0) = inactive

Answered cases to consult:
O=[N+]([O-])c1ccc(CSc2ncnc3c2ncn3[C@@H]2O[C@H](CO)[C@@H](O)[C@H]2O)cc1
false (0)
O=c1[nH]c(=O)n([C@H]2C[C@@H](O)[C@@H](CO)O2)cc1C(F)(F)F
false (0)
COC(=O)CC(C)CCC=C(C)C (centres undefined)
false (0)
CSC(N)=NCCC[C@H](N)C(=O)O
false (0)
CCC(CC)[C@H](NC(C)=O)[C@@H]1[C@H](O)[C@@H](C(=O)O)C[C@@H]1N=C(N)N
false (0)

-- ask Outcome logged for CC1(C)CC(=O)c2c(C(F)(F)F)nn(-c3ccc(C(N)=O)c(NC4CCC(O)CC4)c3)c2C1 (centres undefined) in this assay:
-- reply true (1)

-- ask Outcome logged for CCOC(=O)[C@H](CCc1ccccc1)N[C@@H](C)C(=O)N1[C@@H](C(=O)O)C[C@H]2CCC[C@@H]21 in this assay:
-- reply false (0)

-- ask Outcome logged for CC(C)c1c(C(=O)Nc2ccccc2)c(-c2ccccc2)c(-c2ccc(F)cc2)n1CC[C@H](O)C[C@@H](O)CC(=O)O in this assay:
-- reply false (0)

-- ask Outcome logged for CC(=O)OCC(=O)[C@@]1(O)CC[C@H]2[C@@H]3CCC4=CC(=O)CC[C@]4(C)[C@@H]3C(=O)C[C@@]21C in this assay:
-- reply false (0)
